The reader will find reported protein stability index values listed item by item below.
B1: PTPN9 (parent)
chain: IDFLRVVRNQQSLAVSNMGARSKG

Variants of: B1
Experiment: protein stability index of a GFP-peptide fusion (GPS, HEK-293T) (PSI 1-6); higher = more stable;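 note: lentivirally expressed fusions sorted by FACS into six bins by GFP to DsRed ratio, PSI derived from sequencing read proportions per bin multiplied by bin number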
Conditions: c terminus: a fixed tail appended
Reply: number alone, nothing else.

// worked examples, protein stability index included
N9L ... 1.61
G24V ... 2.45
F3K ... 3.93
S22K ... 2.46

Query S12H yields protein stability index of 2.41

According to the records, this variant S22M displays protein stability index of 1.81

Just so you know, measured protein stability index for L4V came out at 2.6

Record G24A . Reported protein stability index: 2.55

For K23C the variant record lists protein stability index as 1.88

The recorded protein stability index for entry G19P equals 2.83
